species on record: Canis familiaris; conditions: dog, in vivo, iv
readout-type: AUC (mg/h/L)

Examples from the recorded data:
| substance-smiles | endpoint-value |
| --- | --- |
| CC(C)(O/N=C(\C(=O)N[C@@H]1C(=O)N2C(C(=O)O)=C(CNC(=O)c3cc(O)c(O)c(O)c3)CS[C@H]12)c1csc(N)n1)C(=O)O | 51.9 |
| CCO/N=C(\C(=O)N[C@@H]1C(=O)N2C(C(=O)O)=C(CNC(=O)c3cc(O)c(O)c(Br)c3)CS[C@H]12)c1csc(N)n1 | 17 |

P. CCO/N=C(\C(=O)N[C@@H]1C(=O)N2C(C(=O)O)=C(CNC(=O)c3cc(O)c(O)c([N+](=O)[O-])c3)CS[C@H]12)c1csc(N)n1
Q. CC(C)(O/N=C(\C(=O)N[C@@H]1C(=O)N2C(C(=O)O)=C(CNC(=O)c3cc(O)c(O)cc3Br)CS[C@H]12)c1csc(N)n1)C(=O)O
R. CC(C)(O/N=C(\C(=O)N[C@@H]1C(=O)N2C(C(=O)O)=C(CNC(=O)c3cc(O)c(O)cc3F)CS[C@H]12)c1csc(N)n1)C(=O)O
S. CC(C)(O/N=C(\C(=O)N[C@@H]1C(=O)N2C(C(=O)O)=C(CNC(=O)/C=C/c3cc(O)c(O)cc3Br)CS[C@H]12)c1csc(N)n1)C(=O)O
Rank descending by AUC. Sort the labels as requested; that list is your answer. R, P, S, Q
(R: 78 mg/h/L, P: 48.9 mg/h/L, S: 24.2 mg/h/L, Q: 13.4 mg/h/L)

The reported numbers originate from ChEMBL document CHEMBL1125482.
